As shown below, each of these compounds has a reported melting point value.

compound=O=c1oc2cc(OCC3OCCO3)ccc2c2ccccc12 result="135.6 to 137.8 °C"
compound=O=c1oc2cc(OCCO)ccc2c2ccccc12 result="125.7 to 126.4 °C"
compound=COc1cc(COc2ccc3c(c2)oc(=O)c2cc(OC)ccc23)cc(OC)c1 result="153.6 to 155.3 °C"

Request: Supply reported melting point belonging to this compound: `COc1ccc2c(c1)c(=O)oc1cc(OCCn3cccn3)ccc12`
Response: 159 to 161.1 °C

Request: Supply reported melting point belonging to this compound: CCOc1ccc2c(c1)oc(=O)c1ccccc12 [Compound 1b, Ethoxy-6H-benzo[c]chromen-6-one]
Response: 115.2 to 117.7 °C

Request: Supply reported melting point belonging to this compound: CCC(C)Oc1ccc2c(c1)oc(=O)c1ccccc12 (stereo not drawn) [Compound 1e, 3-(Sec-butoxy)-6H-benzo[c]chromen-6-one]
Response: 73.2 to 75.8 °C
